Assay: Total clearance in monkey at 20 mg/kg, iv administered as bolus dose by HPLC method
Format: ADME, organism-based, Macaca mulatta
Conditions: rhesus monkey, in vivo
Record fulfilled whenever clearance is at 0.8 mL/min/kg or higher; record not fulfilled when lower.

{"MOLECULE": "CCO/N=C(\\C(=O)N[C@@H]1C(=O)N2C(C(=O)[O-])=C(/C=C/C[n+]3ccc(-c4c[nH]c(/C([O-])=N/C#N)c4)cc3)CS[C@H]12)c1csc(N)n1.[Na+]", "CLASS NAME": "fulfilled"}
{"MOLECULE": "CCO/N=C(\\C(=O)N[C@@H]1C(=O)N2C(C(=O)[O-])=C(/C=C/C[n+]3cccc4cc(/C([O-])=N/C#N)ccc43)CS[C@H]12)c1csc(N)n1.[Na+]", "CLASS NAME": "fulfilled"}
{"MOLECULE": "CCO/N=C(\\C(=O)N[C@@H]1C(=O)N2C(C(=O)[O-])=C(/C=C/C[n+]3ccc4c(/C([O-])=N\\C#N)cccc4c3)CS[C@H]12)c1csc(N)n1.[Na+]", "CLASS NAME": "fulfilled"}
{"MOLECULE": "CCO/N=C(\\C(=O)N[C@@H]1C(=O)N2C(C(=O)[O-])=C(/C=C/C[n+]3ccc(-c4csc(/C([O-])=N/C#N)c4)cc3)CS[C@H]12)c1csc(N)n1.[Na+]", "CLASS NAME": "not fulfilled"}

--- query ---
Reported clearance reaches at least 0.8 mL/min/kg for CO/N=C(\C(=O)N[C@@H]1C(=O)N2C(C(=O)O)=C(CSc3nc(=O)c(=O)[nH]n3C)CS[C@H]12)c1csc(N)n1 [CEFTRIAXONE] ?
not fulfilled

====

Experiment: Half life in monkey at 20 mg/kg, iv administered as bolus dose by HPLC method
Assay type: ADME, organism-based, Macaca mulatta
Conditions: rhesus monkey, in vivo
VALUE KIND: half-life (h)
Numbers only, in h.

{"COMPOUND": "CCO/N=C(\\C(=O)N[C@@H]1C(=O)N2C(C(=O)[O-])=C(/C=C/C[n+]3ccc(-n4ccc(/C([O-])=N/C#N)n4)cc3)CS[C@H]12)c1csc(N)n1.[Na+]", "VALUE KIND": "half-life", "UNIT LABEL": "h", "OBSERVED VALUE": 2.8}
{"COMPOUND": "CCO/N=C(\\C(=O)N[C@@H]1C(=O)N2C(C(=O)[O-])=C(/C=C/C[n+]3cccc4[nH]c(/C([O-])=N/C#N)cc43)CS[C@H]12)c1csc(N)n1.[Na+]", "VALUE KIND": "half-life", "UNIT LABEL": "h", "OBSERVED VALUE": 2.03}
{"COMPOUND": "CO/N=C(\\C(=O)N[C@@H]1C(=O)N2C(C(=O)O)=C(CSc3nc(=O)c(=O)[nH]n3C)CS[C@H]12)c1csc(N)n1 [CEFTRIAXONE]", "VALUE KIND": "half-life", "UNIT LABEL": "h", "OBSERVED VALUE": 1.95}
{"COMPOUND": "CCO/N=C(\\C(=O)N[C@@H]1C(=O)N2C(C(=O)[O-])=C(/C=C/C[n+]3ccc(-c4cc(/C([O-])=N/C#N)on4)cc3)CS[C@H]12)c1csc(N)n1.[Na+]", "VALUE KIND": "half-life", "UNIT LABEL": "h", "OBSERVED VALUE": 5.14}
{"COMPOUND": "CCO/N=C(\\C(=O)N[C@@H]1C(=O)N2C(C(=O)[O-])=C(/C=C/C[n+]3ccc(-c4c[nH]c(/C([O-])=N/C#N)c4)cc3)CS[C@H]12)c1csc(N)n1.[Na+]", "VALUE KIND": "half-life", "UNIT LABEL": "h", "OBSERVED VALUE": 4.25}

Please fill in: half-life reported for CCO/N=C(\C(=O)N[C@@H]1C(=O)N2C(C(=O)[O-])=C(/C=C/C[n+]3cccc4cc(/C([O-])=N/C#N)ccc43)CS[C@H]12)c1csc(N)n1.[Na+] = 1.74

====

Test: Half life in monkey at 20 mg/kg, iv administered as bolus dose by HPLC method
Format: ADME, organism-based, Macaca mulatta
Conditions: rhesus monkey, in vivo
VALUE KIND: half-life

{"SMILES DATA": "CCO/N=C(\\C(=O)N[C@@H]1C(=O)N2C(C(=O)[O-])=C(/C=C/C[n+]3ccc(-c4nc(/C([O-])=N/C#N)cs4)cc3)CS[C@H]12)c1csc(N)n1.[Na+]", "half-life": "3.88 h"}
{"SMILES DATA": "CCO/N=C(\\C(=O)N[C@@H]1C(=O)N2C(C(=O)[O-])=C(/C=C/C[n+]3ccc(-c4cc(/C([O-])=N/C#N)n(C)n4)cc3)CS[C@H]12)c1csc(N)n1.[Na+]", "half-life": "2.96 h"}
{"SMILES DATA": "CCO/N=C(\\C(=O)N[C@@H]1C(=O)N2C(C(=O)[O-])=C(/C=C/C[n+]3ccc(-c4cc(/C([O-])=N/C#N)[nH]n4)cc3)CS[C@H]12)c1csc(N)n1.[Na+]", "half-life": "4.43 h"}
{"SMILES DATA": "CCO/N=C(\\C(=O)N[C@@H]1C(=O)N2C(C(=O)[O-])=C(/C=C/C[n+]3cccc(/C([O-])=N/C#N)c3)CS[C@H]12)c1csc(N)n1.[Na+]", "half-life": "1.33 h"}

Dear reader, for each entry below, please note its half-life.
1. CCO/N=C(\C(=O)N[C@@H]1C(=O)N2C(C(=O)[O-])=C(/C=C/C[n+]3ccc4c(/C([O-])=N\C#N)cccc4c3)CS[C@H]12)c1csc(N)n1.[Na+]
2. CCO/N=C(\C(=O)N[C@@H]1C(=O)N2C(C(=O)[O-])=C(/C=C/C[n+]3ccc4sc(/C([O-])=N/C#N)nc4c3)CS[C@H]12)c1csc(N)n1.[Na+]

1. 1.52 h
2. 2.86 h

====

Experiment: Total clearance in mouse at 20 mg/kg, iv administered as bolus dose by band-culture bioassay
Conditions: in vivo
VALUE KIND: clearance (mL/min/kg)
One number for each entry, in mL/min/kg.

// below: answered molecules
{"MOLECULE": "N#C/N=C(\\[O-])c1cc(-c2cc[n+](CC3=C(C(=O)[O-])N4C(=O)[C@@H](NC(=O)/C(=N\\OCCF)c5csc(N)n5)[C@H]4SC3)cc2)n[nH]1.[Na+] (stereo in doubt)", "clearance [mL/min/kg]": 26.2}
{"MOLECULE": "CCO/N=C(\\C(=O)N[C@@H]1C(=O)N2C(C(=O)[O-])=C(/C=C/C[n+]3ccc(-n4ccc(/C([O-])=N/C#N)n4)cc3)CS[C@H]12)c1csc(N)n1.[Na+]", "clearance [mL/min/kg]": 19.8}

Okay, here is my list. What is clearance for each of these?
1. CCCO/N=C(\C(=O)N[C@@H]1C(=O)N2C(C(=O)[O-])=C(C[n+]3ccc(-c4cc(/C([O-])=N/C#N)[nH]n4)cc3)CS[C@H]12)c1csc(N)n1.[Na+] (stereo in doubt)
2. CCO/N=C(\C(=O)N[C@@H]1C(=O)N2C(C(=O)[O-])=C(/C=C/C[n+]3ccc(-c4cc(/C([O-])=N/C#N)[nH]n4)cc3)CS[C@H]12)c1csc(N)n1.[Na+]
3. CCO/N=C(\C(=O)N[C@@H]1C(=O)N2C(C(=O)[O-])=C(/C=C/C[n+]3ccc(-c4nc(/C([O-])=N/C#N)cs4)cc3)CS[C@H]12)c1csc(N)n1.[Na+]
4. CCO/N=C(\C(=O)N[C@@H]1C(=O)N2C(C(=O)[O-])=C(/C=C/C[n+]3cccc4[nH]c(/C([O-])=N/C#N)cc43)CS[C@H]12)c1csc(N)n1.[Na+]
5. CCO/N=C(\C(=O)N[C@@H]1C(=O)N2C(C(=O)[O-])=C(C=CC[n+]3ccc(-c4cc(/C([O-])=N/C#N)[nH]n4)cc3)CS[C@H]12)c1csc(N)n1.[Na+]
6. CCO/N=C(\C(=O)N[C@@H]1C(=O)N2C(C(=O)[O-])=C(C[n+]3ccc(-c4cc(/C([O-])=N/C#N)[nH]n4)cc3)CS[C@H]12)c1csc(N)n1.[Na+] (stereo in doubt)

1. 37.4
2. 19.2
3. 16
4. 14.1
5. 19.1
6. 30.8

====

Experiment: Half life in mouse at 20 mg/kg, iv administered as bolus dose by band-culture bioassay
Details: in vivo
VALUE KIND: half-life (min)
Answers are plain numbers, in min.

{"COMPOUND": "CCO/N=C(\\C(=O)N[C@@H]1C(=O)N2C(C(=O)[O-])=C(/C=C/C[n+]3ccc(-c4cc(/C([O-])=N/C#N)on4)cc3)CS[C@H]12)c1csc(N)n1.[Na+]", "OBSERVED VALUE": 51}
{"COMPOUND": "CCO/N=C(\\C(=O)N[C@@H]1C(=O)N2C(C(=O)[O-])=C(/C=C/C[n+]3cccc4[nH]c(/C([O-])=N/C#N)cc43)CS[C@H]12)c1csc(N)n1.[Na+]", "OBSERVED VALUE": 43.8}
{"COMPOUND": "CCO/N=C(\\C(=O)N[C@@H]1C(=O)N2C(C(=O)[O-])=C(/C=C/C[n+]3cccc(/C([O-])=N/C#N)c3)CS[C@H]12)c1csc(N)n1.[Na+]", "OBSERVED VALUE": 33}

Batch: half-life for all items listed.
1. CCCO/N=C(\C(=O)N[C@@H]1C(=O)N2C(C(=O)[O-])=C(C[n+]3ccc(-c4cc(/C([O-])=N/C#N)[nH]n4)cc3)CS[C@H]12)c1csc(N)n1.[Na+] (stereo in doubt)
2. CCO/N=C(\C(=O)N[C@@H]1C(=O)N2C(C(=O)[O-])=C(/C=C/C[n+]3ccc(-c4nc(/C([O-])=N/C#N)cs4)cc3)CS[C@H]12)c1csc(N)n1.[Na+]
3. CCO/N=C(\C(=O)N[C@@H]1C(=O)N2C(C(=O)[O-])=C(/C=C/C[n+]3cccc4cc(/C([O-])=N/C#N)ccc43)CS[C@H]12)c1csc(N)n1.[Na+]

1. 58.8
2. 40.2
3. 57
